Molecular target: Wee-1 kinase (Homo sapiens (Human))
Test: Measurement of Wee-1 kinase activity (ADP-Glo luminescence)
Type: biochemical
Details: Table 6; Present Invention; read-out: Wee-1/nM
outcomeMeasure: IC50 (nM)

>>> observedmeasurement("CC(C)n1c(=O)c2cnc(Nc3ccc(N4CCN(C)CC4)cc3)nc2n1-c1cccc(N=S(C)(C)=O)n1")
1.4

----------
Target: Wee-1 kinase (Homo sapiens (Human))
Experiment: Measurement of Wee-1 kinase activity (ADP-Glo luminescence)
Assay type: biochemical
Settings: read-out: Wee1 IC50
Text: Method 1: Measurement of Wee-1 Kinase Activity In the measurement of Wee-1 activity, a commercial peptide Poly(Lys Tyr(4:1)) hydrobromide was purchased from Sigma Aldrich and used as the substrate. Activated Wee-1 kinase was purchased from Invitrogen (PV3817) and an ADP-Glo luminescent kit was purchased from Promega. […] Luminescence from each well was detected using the Biotek Synergy4 HD plate reader and the percentage inhibition of kinase activity calculated for each inhibitor tested. […]
Measured IC50 of individual entries
outcomeMeasure: IC50

>>> observedmeasurement("C=CCn1c(=O)c2cnc(Nc3ccc(N4CCNCC4)cc3)nc2n1-c1cccc(N=S(C)(C)=O)n1")
"1.8 nM"
>>> observedmeasurement("C=CCn1c(=O)c2cnc(Nc3cnn(C)c3)nc2n1-c1cccc(N=S2(=O)CCCC2)n1")
"2.5 nM"
>>> observedmeasurement("C=CCn1c(=O)c2cnc(Nc3ccc(N4CCC4)cc3)nc2n1-c1cccc(N=S(C)(C)=O)n1")
"0.2 nM"
>>> observedmeasurement("CCCn1c(=O)c2cnc(Nc3ccc(N4CCN(C)CC4)cc3)nc2n1-c1cccc(N=S(C)(C)=O)n1")
"1.2 nM"
>>> observedmeasurement("C=CCn1c(=O)c2cnc(Nc3ccccc3)nc2n1-c1cccc(N=S(C)(C)=O)n1")
"1 nM"
>>> observedmeasurement("C=CCn1c(=O)c2cnc(Nc3ccc(F)c(OC)c3)nc2n1-c1cccc(N=S(C)(C)=O)n1")
"0.4 nM"
>>> observedmeasurement("C=CCn1c(=O)c2cnc(Nc3ccc(N4C[C@@H](C)O[C@@H](C)C4)cc3)nc2n1-c1cccc(N=S(C)(C)=O)n1")
"0.5 nM"
>>> observedmeasurement("C=CCn1c(=O)c2cnc(Nc3ccc(N4CCNC(C(F)(F)F)C4)cc3)nc2n1-c1cncc(N=S(C)(C)=O)n1 (racemic)")
"0.4 nM"
>>> observedmeasurement("CC(C)n1c(=O)c2cnc(Nc3ccc(N4CCNC(=O)C4)cc3)nc2n1-c1cccc(N=S(C)(C)=O)n1")
"0.9 nM"
>>> observedmeasurement("CC(C)n1c(=O)c2cnc(NC3CCC3)nc2n1-c1cccc(N=S(C)(C)=O)n1")
"67 nM"
>>> observedmeasurement("CC(C)n1c(=O)c2cnc(Nc3ccc(F)cc3F)nc2n1-c1cccc(N=S(C)(C)=O)n1")
"68 nM"
>>> observedmeasurement("CC(C)n1c(=O)c2cnc(Nc3ccc(C#N)cc3)nc2n1-c1cccc(N=S(C)(C)=O)n1")
"26 nM"
>>> observedmeasurement("C=CCn1c(=O)c2cnc(Nc3cnn(C4CCCCC4)c3)nc2n1-c1cccc(N=S(C)(C)=O)n1")
"0.4 nM"
>>> observedmeasurement("CC(C)n1c(=O)c2cnc(Nc3ccc(N4CCNCC4)cc3)nc2n1-c1cccc(N=S2(=O)CCCC2)n1")
"1.2 nM"
>>> observedmeasurement("C=CCn1c(=O)c2cnc(Nc3cnn(C)c3)nc2n1-c1cccc(N=[S@@](C)(=O)c2ccccc2)n1")
"46 nM"

----------
Tested on: phosphorylation of Cdc2 at Tyr15
Test: ELISA for phosphorylation of Cdc2 at Tyr15 in HT-29 / HCT-116 cells
Assay type: cell-based
Conditions: Homo sapiens; Table 5; data obtained as described in the experimental section of the current invention; read-out: ELISA/nM
outcomeMeasure: EC50 (nM)

>>> observedmeasurement("C=CCn1c(=O)c2cnc(Nc3ccc(N4CCN(C)CC4)cc3)nc2n1-c1cccc(N=S(C)(C)=O)n1")
12

----------
Biological target: Wee-1 kinase (Homo sapiens (Human), UniProt P30291)
Sequence (P30291 whole entry): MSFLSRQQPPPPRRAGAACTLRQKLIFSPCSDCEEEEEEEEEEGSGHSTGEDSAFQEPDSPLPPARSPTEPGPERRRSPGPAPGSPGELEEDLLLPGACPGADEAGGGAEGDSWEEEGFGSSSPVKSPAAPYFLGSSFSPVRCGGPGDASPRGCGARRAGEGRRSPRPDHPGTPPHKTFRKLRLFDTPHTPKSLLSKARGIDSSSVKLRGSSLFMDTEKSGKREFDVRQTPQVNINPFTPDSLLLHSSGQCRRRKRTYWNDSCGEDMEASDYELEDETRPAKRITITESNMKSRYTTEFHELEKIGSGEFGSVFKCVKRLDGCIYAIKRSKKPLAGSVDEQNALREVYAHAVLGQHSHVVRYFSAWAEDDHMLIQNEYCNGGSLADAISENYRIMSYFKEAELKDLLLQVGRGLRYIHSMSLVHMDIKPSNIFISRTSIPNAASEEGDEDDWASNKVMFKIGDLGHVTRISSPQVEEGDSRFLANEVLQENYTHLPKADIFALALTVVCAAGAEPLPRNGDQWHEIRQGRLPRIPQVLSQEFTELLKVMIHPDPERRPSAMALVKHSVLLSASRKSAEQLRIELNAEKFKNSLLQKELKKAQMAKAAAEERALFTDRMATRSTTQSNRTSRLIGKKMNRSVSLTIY
Assay: Measurement of Wee-1 kinase activity (ADP-Glo luminescence)
Assay type: biochemical
Details: read-out: Wee1 IC50
pIC50: −log10 of the molar value.
outcomeMeasure: pIC50

>>> observedmeasurement("CC(C)n1c(=O)c2cnc(Nc3ccc(N4CCN(C)CC4)cc3)nc2n1-c1cccc(N=S(C)(C)=O)n1 [Example 20]")
8.85
>>> observedmeasurement("C=CCn1c(=O)c2cnc(Nc3ccc(N4CCOCC4)c(OC)c3)nc2n1-c1cccc(N=S(C)(C)=O)n1 [Example 25]")
9.15
>>> observedmeasurement("C=CCn1c(=O)c2cnc(Nc3ccc(F)cc3)nc2n1-c1cncc(N=S(C)(C)=O)n1 [Example 75]")
8.85
>>> observedmeasurement("COc1ccc(Nc2ncc3c(=O)n(C(C)C)n(-c4cccc(N=S(C)(C)=O)n4)c3n2)cc1 [Example 42]")
8.96
>>> observedmeasurement("C#CCn1c(=O)c2cnc(Nc3cnn(C(C)C)c3)nc2n1-c1cccc(N=S(C)(C)=O)n1 [Example 94]")
8.92
>>> observedmeasurement("C=CCn1c(=O)c2cnc(Nc3ccc(N4CCNCC4)c(Cl)c3)nc2n1-c1cccc(N=S(C)(C)=O)n1 [Example 14]")
9.10
